src = the MegaScale stability set (Tsuboyama et al. 2023)

B1: r11_951_TrROS_Hall (parent)
chain: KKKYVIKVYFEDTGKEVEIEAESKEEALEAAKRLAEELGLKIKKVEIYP

- Variants of: B1
- METHOD NOTES: folding stability dG (cDNA display proteolysis); higher = more stable
- STUDY CONDITIONS: PBS, room temperature
QUANTITY MEASURED: folding stability dG (kcal/mol)
One number for each entry, in kcal/mol.

These recorded examples may help you get a feel for the data.
VARIANT KEY	folding stability dG / kcal/mol
P49M	4.69
S23D	4.31

I have 6 variants here; please give me folding stability dG for each one.
1. V8P
2. K32F
3. A35L
4. E26F
5. K32H
6. E22K

0.881
4.98
3.88
4.83
4.55
4.05

I have 3 variants here; please give me folding stability dG for each one.
1. A31E
2. E18K
3. E29A

1. 2.11
2. 4.07
3. 4.75
